Taken from paper PMC9492542.

Reported pKd values follow for various compounds
Molecular target: FKBP12 (Homo sapiens)
Construct: His-tag (HRV 3C cleavable) (cleaved yes); made in house; host or cells: Escherichia coli BL21(DE3)
Assay: Competition fluorescence polarization assay with FITC-rapamycin tracer
Type: binding
Details: recombinant FKBP12, Extended Data Fig. 2; read-out: Kd (FKBP12)
FYI, pKd means -log10 of a concentration in mol per litre.

# Compound, Measured Metric, Numeric Value
data = [
    ("CO[C@H]1C[C@@H](C)C/C(C)=C/[C@@H](CCCSCCN)C(=O)C[C@H](O)[C@@H](C)[C@@H](/C(C)=C/[C@@H]2CC[C@@H](O)[C@H](OC)C2)OC(=O)[C@@H]2CCCCN2C(=O)C(=O)[C@]2(O)O[C@H]1[C@@H](OC)C[C@H]2C [Compound 05-011]", "pKd", 9.15),
    ("CO[C@H]1C[C@@H](C)C/C(C)=C/[C@@H](C/C=C/C(=O)O)C(=O)C[C@H](O)[C@@H](C)[C@@H](/C(C)=C/[C@@H]2CC[C@@H](O)[C@H](OC)C2)OC(=O)[C@@H]2CCCCN2C(=O)C(=O)[C@]2(O)O[C@H]1[C@@H](OC)C[C@H]2C [Compound 05-012]", "pKd", 9.40),
    ("CO[C@H]1C[C@@H](C)C/C(C)=C/[C@@H](CCCc2ccccn2)C(=O)C[C@H](O)[C@@H](C)[C@@H](/C(C)=C/[C@@H]2CC[C@@H](O)[C@H](OC)C2)OC(=O)[C@@H]2CCCCN2C(=O)C(=O)[C@]2(O)O[C@H]1[C@@H](OC)C[C@H]2C [05-084 (06-039)]", "pKd", 8.48),
]

--- query ---
Q: Value lookup for pKd; key = CCC(C)(C)C(=O)C(=O)N1CCCC[C@H]1C(=O)O[C@H](CCc1ccc(OC)c(OC)c1)c1cccc(NC(=O)Cc2ccccn2)c1 [Compound 03-083]
Result: 7.51

----------
Molecular target: FKBP12 (Homo sapiens, UniProt P62942)
Construct: His-tag (HRV 3C cleavable) (cleaved yes); made in house; host or cells: Escherichia coli BL21(DE3)
Sequence (P62942 whole entry): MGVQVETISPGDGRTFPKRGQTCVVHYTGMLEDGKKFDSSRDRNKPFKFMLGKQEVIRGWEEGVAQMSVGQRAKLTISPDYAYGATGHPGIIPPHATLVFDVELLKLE
Assay: Competition fluorescence polarization assay with FITC-rapamycin tracer
Format: binding
Conditions: recombinant FKBP12, Extended Data Fig. 2; read-out: Kd (FKBP12)
Measured Metric: Kd
Quick note: unit goes after the number.

Q: Value lookup for Kd; key = CO[C@H]1C[C@@H](C)C/C(C)=C/[C@@H](C/C=C/c2cccc[n+]2[O-])C(=O)C[C@H](O)[C@@H](C)[C@@H](/C(C)=C/[C@@H]2CC[C@@H](O)[C@H](OC)C2)OC(=O)[C@@H]2CCCCN2C(=O)C(=O)[C@]2(O)O[C@H]1[C@@H](OC)C[C@H]2C
Result: 0.6 nM

Q: // repeat for CO[C@H]1C[C@@H](C)C/C(C)=C/[C@@H](CCCc2cccc[n+]2[O-])C(=O)C[C@H](O)[C@@H](C)[C@@H](/C(C)=C/[C@@H]2CC[C@@H](O)[C@H](OC)C2)OC(=O)[C@@H]2CCCCN2C(=O)C(=O)[C@]2(O)O[C@H]1[C@@H](OC)C[C@H]2C and report
Result: 1.6 nM

----------
Reported pKd values follow for various compounds
Molecular target: FKBP12 (Homo sapiens)
Construct: His-tag (HRV 3C cleavable) (cleaved yes); made in house; host or cells: Escherichia coli BL21(DE3)
Assay: Competition fluorescence polarization assay with FITC-rapamycin tracer
Assay type: binding
Details: recombinant FKBP12, Extended Data Fig. 2; read-out: Kd (FKBP12)
FYI, pKd means -log10 of a concentration in mol per litre.

Examples with their reported pKd follow.
# Structure Notation, pKd
data = [
    ("CCC(C)(C)C(=O)C(=O)N1CCCC[C@H]1C(=O)O[C@H](CCc1ccc(OC)c(OC)c1)c1cccc(NC(=O)CCOCCOCCN)c1", 7.36),
    ("CCC(C)(C)C(=O)C(=O)N1CCCC[C@H]1C(=O)O[C@H](CCc1ccc(OC)c(OC)c1)c1cccc(NC(=O)CN2CCOCC2)c1", 7.82),
]

Q: Value lookup for pKd; key = CO[C@H]1C[C@@H](C)C/C(C)=C/[C@@H](C/C=C/c2cc[n+]([O-])cc2)C(=O)C[C@H](O)[C@@H](C)[C@@H](/C(C)=C/[C@@H]2CC[C@@H](O)[C@H](OC)C2)OC(=O)[C@@H]2CCCCN2C(=O)C(=O)[C@]2(O)O[C@H]1[C@@H](OC)C[C@H]2C
Result: 9.70

Q: // repeat for CCC(C)(C)C(=O)C(=O)N1CCCC[C@H]1C(=O)O[C@H](CCc1ccc(OC)c(OC)c1)c1cccc(OCCN)c1 and report
Result: 8.03

Q: // repeat for C=CC(=O)Nc1cccc([C@@H](CCc2ccc(OC)c(OC)c2)OC(=O)[C@@H]2CCCCN2C(=O)C(=O)C(C)(C)CC)c1 and report
Result: 7.19

----------
Target: FKBP12 (Homo sapiens, UniProt P62942)
Construct: His-tag (HRV 3C cleavable) (cleaved yes); made in house; host or cells: Escherichia coli BL21(DE3)
Experiment: Competition fluorescence polarization assay with FITC-rapamycin tracer
Assay type: binding
Conditions: recombinant FKBP12, Extended Data Fig. 2; read-out: Kd (FKBP12)
Measured Metric: Kd (nM)
Note: unit nM is implicit; provide only the numeric part.

# Compound, Tested On, U, Kd
records = [
    ("CCC(C)(C)C(=O)C(=O)N1CCCC[C@H]1C(=O)O[C@H](CCc1ccc(OC)c(OC)c1)c1cccc(NC(=O)CN=[N+]=[N-])c1", "FKBP12 (Homo sapiens, UniProt P62942)", "nM", 6),
    ("CO[C@H]1C[C@@H](C)C/C(C)=C/[C@@H](CCCSCCNC(=O)CNc2ccccn2)C(=O)C[C@H](O)[C@@H](C)[C@@H](/C(C)=C/[C@@H]2CC[C@@H](O)[C@H](OC)C2)OC(=O)[C@@H]2CCCCN2C(=O)C(=O)[C@]2(O)O[C@H]1[C@@H](OC)C[C@H]2C", "FKBP12 (Homo sapiens, UniProt P62942)", "nM", 2.5),
    ("CCC(C)(C)C(=O)C(=O)N1CCCC[C@H]1C(=O)O[C@H](CCc1ccc(OC)c(OC)c1)c1cccc(NCCN)c1", "FKBP12 (Homo sapiens, UniProt P62942)", "nM", 36),
    ("CCC(C)(C)C(=O)C(=O)N1CCCC[C@H]1C(=O)O[C@H](CCc1ccc(OC)c(OC)c1)c1cccc(NC(=O)Cc2cccc[n+]2[O-])c1", "FKBP12 (Homo sapiens, UniProt P62942)", "nM", 29),
    ("CO[C@H]1C[C@@H](C)C/C(C)=C/[C@@H](C/C=C/c2ccccn2)C(=O)C[C@H](O)[C@@H](C)[C@@H](/C(C)=C/[C@@H]2CC[C@@H](O)[C@H](OC)C2)OC(=O)[C@@H]2CCCCN2C(=O)C(=O)[C@]2(O)O[C@H]1[C@@H](OC)C[C@H]2C", "FKBP12 (Homo sapiens, UniProt P62942)", "nM", 3.6),
]

--- query ---
Q: Value lookup for Kd; key = CCC(C)(C)C(=O)C(=O)N1CCCC[C@H]1C(=O)O[C@H](CCc1ccc(OC)c(OC)c1)c1cccc(NCC(=O)O)c1 [Compound 01-060A]
Result: 46

----------
Molecular target: FKBP12 (Homo sapiens, UniProt P62942)
Construct: His-tag (HRV 3C cleavable) (cleaved yes); made in house; host or cells: Escherichia coli BL21(DE3)
Assay: Competition fluorescence polarization assay with FITC-rapamycin tracer
Assay type: binding
Settings: recombinant FKBP12, Extended Data Fig. 2; read-out: Kd (FKBP12)
Measured Metric: Kd
Quick note: unit goes after the number.

# Compound, Kd
data = [
    ("CCC(C)(C)C(=O)C(=O)N1CCCC[C@H]1C(=O)O[C@H](CCc1ccc(OC)c(OC)c1)c1cccc(OCC(=O)O)c1 [Compound 01-041]", "38 nM"),
    ("CCC(C)(C)C(=O)C(=O)N1CCCC[C@H]1C(=O)O[C@H](CCc1ccc(OC)c(OC)c1)c1cccc(N(CC(=O)O)CC(=O)O)c1 [Compound 01-060B]", "75 nM"),
    ("CCC(C)(C)C(=O)C(=O)N1CCCC[C@H]1C(=O)O[C@H](CCc1ccc(OC)c(OC)c1)c1cccc(NC(=O)CN)c1 [Compound 01-040]", "21 nM"),
]

--- query ---
Q: Value lookup for Kd; key = CCC(C)(C)C(=O)C(=O)N1CCCC[C@H]1C(=O)O[C@H](CCc1ccc(OC)c(OC)c1)c1cccc(NC(=O)CN(C)C)c1 [Compound 01-044]
Result: 13 nM

----------
Target: FKBP12 (Homo sapiens, UniProt P62942)
Construct: His-tag (HRV 3C cleavable) (cleaved yes); made in house; host or cells: Escherichia coli BL21(DE3)
Assay: Competition fluorescence polarization assay with FITC-rapamycin tracer
Type: binding
Conditions: recombinant FKBP12, Extended Data Fig. 2; read-out: Kd (FKBP12)
Reported pKd values follow for various compounds
FYI, pKd means -log10 of a concentration in mol per litre.

Examples with their reported pKd follow.
# Structure Notation, Tested On, Numeric Value
rows = [
    ("CO[C@H]1C[C@@H](C)C/C(C)=C/[C@@H](CCCSCCN(C)C)C(=O)C[C@H](O)[C@@H](C)[C@@H](/C(C)=C/[C@@H]2CC[C@@H](O)[C@H](OC)C2)OC(=O)[C@@H]2CCCCN2C(=O)C(=O)[C@]2(O)O[C@H]1[C@@H](OC)C[C@H]2C", "FKBP12 (Homo sapiens, UniProt P62942)", 8.85),
    ("CCC(C)(C)C(=O)C(=O)N1CCCC[C@H]1C(=O)O[C@H](CCc1ccc(OC)c(OC)c1)c1cccc(NC(=O)C[N+](C)(C)C)c1", "FKBP12 (Homo sapiens, UniProt P62942)", 7.02),
    ("CO[C@H]1C[C@@H](C)C/C(C)=C/[C@@H](CCCc2cc[n+]([O-])cc2)C(=O)C[C@H](O)[C@@H](C)[C@@H](/C(C)=C/[C@@H]2CC[C@@H](O)[C@H](OC)C2)OC(=O)[C@@H]2CCCCN2C(=O)C(=O)[C@]2(O)O[C@H]1[C@@H](OC)C[C@H]2C", "FKBP12 (Homo sapiens, UniProt P62942)", 8.60),
    ("CCC(C)(C)C(=O)C(=O)N1CCCC[C@H]1C(=O)O[C@H](CCc1ccc(OC)c(OC)c1)c1cccc(NC(=O)CS)c1", "FKBP12 (Homo sapiens, UniProt P62942)", 7.19),
    ("CCC(C)(C)C(=O)C(=O)N1CCCC[C@H]1C(=O)O[C@H](CCc1ccc(OC)c(OC)c1)c1cccc(NC(=O)CNN)c1", "FKBP12 (Homo sapiens, UniProt P62942)", 7.68),
]

Q: Value lookup for pKd; key = CO[C@H]1C[C@@H](C)C/C(C)=C/[C@@H](C/C=C/c2ccncc2)C(=O)C[C@H](O)[C@@H](C)[C@@H](/C(C)=C/[C@@H]2CC[C@@H](O)[C@H](OC)C2)OC(=O)[C@@H]2CCCCN2C(=O)C(=O)[C@]2(O)O[C@H]1[C@@H](OC)C[C@H]2C
Result: 8.92

Q: // repeat for CCC(C)(C)C(=O)C(=O)N1CCCC[C@H]1C(=O)O[C@H](CCc1ccc(OC)c(OC)c1)c1cccc(NC(=O)CCOCCN)c1 and report
Result: 7.72
